Ref: ChEMBL document CHEMBL1127044

Species on record: Cavia porcellus
Experiment: Tested for inhibition of field-stimulation-induced contraction in the isolated guinea pig ileum
Format: functional
Conditions: read-out: ID50 (the source's name)
Provide the recorded IC50 for the entries that follow.
Value expressed in nM; do not type the unit.

Lookup: Any idea what its IC50 is? The molecule is CCCN(CCC)C1CCc2cccc(O)c2C1 (racemic) [8-OH-DPAT]
Found: 60

Lookup: Any idea what its IC50 is? The molecule is `Cc1ccc2c(c1)-c1cccc3c1[C@H](C2)N(C)CC3`
Found: 1200

Lookup: Any idea what its IC50 is? The molecule is `Cc1ccc2c(c1)-c1cccc3c1[C@@H](C2)N(C)CC3`
Found: 6800
